System: Enterococcus faecalis ATCC 51299 strain
Experiment: MIC levels of antibiotics against Vancomycin-resistant bacteria
Assay type: cell-based
Details: Enterococcus faecalis, ATCC51299, 16 h; read-out: MIC levels after 16 hours of culture
Readout label: MIC (µg/mL)
Write it as a number; the unit µg/mL goes unstated.

So what's the measured MIC for this one? Cc1onc(-c2ccccc2)c1C(=O)N[C@@H]1C(=O)N2[C@@H]1SC(C)(C)[C@@H]2C(=O)O
32

So what's the measured MIC for this one? O=C(N[C@H](CO)[C@H](O)c1ccc([N+](=O)[O-])cc1)C(Cl)Cl
64

----------
Give MIC for every item shown.
Test system: Enterococcus faecalis ATCC 51299 strain
Assay: MIC levels of antibiotics against Vancomycin-resistant bacteria
Type: cell-based
Conditions: Enterococcus faecalis, ATCC51299, 16 h; read-out: MIC levels after 16 hours of culture
From the text: Enterococcus faecalis ATCC 51299 strain was used as Vancomycin-resistant bacteria.
Positions of bridges follow the written chain, without caps; N, C: chain ends. Non-standard residues stand in square brackets, D forms with d. Residues, ends and D or L forms follow the SMILES beside them. *: point of attachment. Ileψ(thiazoline)Cys = CC[C@H](C)[C@H](N)C1=N[C@H](C(=O)*)CS1; dOrn = NCCC[C@@H](N)C(=O)O

So what's the measured MIC for this one? CC1(C)S[C@@H]2[C@H](NC(=O)[C@H](N)c3ccccc3)C(=O)N2[C@H]1C(=O)O
0.5 µg/mL

So what's the measured MIC for this one? CC[C@H]1OC(=O)[C@H](C)[C@@H](O[C@H]2C[C@@](C)(OC)[C@@H](O)[C@H](C)O2)[C@H](C)[C@@H](O[C@@H]2O[C@H](C)C[C@H](N(C)C)[C@H]2O)[C@](C)(O)C[C@@H](C)C(=O)[C@H](C)[C@@H](O)[C@]1(C)O
512 µg/mL

So what's the measured MIC for this one? CC[C@H](C)[C@H](N)C1=N[C@H](C(=O)N[C@@H](CC(C)C)C(=O)N[C@H](CCC(=O)O)C(=O)N[C@H](C(=O)N[C@H]2CCCCNC(=O)[C@H](CC(N)=O)NC(=O)[C@@H](CC(=O)O)NC(=O)[C@H](Cc3cnc[nH]3)NC(=O)[C@@H](Cc3ccccc3)NC(=O)[C@H]([C@@H](C)CC)NC(=O)[C@@H](CCCN)NC2=O)[C@@H](C)CC)CS1 [Bacitracin] ({Ileψ(thiazoline)Cys}-L[dE]IK[dOrn]I[dF]H[dD]N; lactam 4-C)
64 µg/mL

So what's the measured MIC for this one? CN(C)[C@@H]1C(O)=C(C(N)=O)C(=O)[C@@]2(O)C(O)=C3C(=O)c4c(O)cccc4[C@@](C)(O)[C@H]3C[C@@H]12
0.5 µg/mL
